Tested on: NCI-H460
assay: NCI tumour cell line growth inhibition, 48 h
Calls of active or inactive are those of the source. Rule as the data show it: active = GI50 up to about 1.1 µM and inactive = higher.
Could you please pick one outcome from this set? label 1 for active, label 0 for inactive

Field: example entries. Status: answers known.
Ask: Could you kindly confirm the outcome this assay logged for O=C1CCCC2C3CC(CN12)C1CCCCN1C3.[O-][Cl+3]([O-])([O-])O (stereo unspecified) ?
Reply: label 0

Ask: Also O=C(n1[nH]c(=O)n(-c2ccc([N+](=O)[O-])cc2)c1=O)C(Cl)(Cl)Cl ?
Reply: label 0

Next:
Ask: Could you kindly confirm the outcome this assay logged for CC(=O)NC1C(=O)CC(c2ccccc2)N(C)C1c1ccccc1 (stereo unspecified) ?
Reply: label 0

Ask: Also CC1(c2ccccc2Cl)C(C#N)C(=O)NC(=O)C1C#N (stereo unspecified) ?
Reply: label 0

Ask: Also C[C@@H]1OC2(O)[C@H]3CCCN3S(=O)(=O)CCN2C1=O (stereo partly specified) ?
Reply: label 0

###

Quick list: GI50 per entry.
Tested on: EKVX
assay: NCI tumour cell line growth inhibition, 48 h
The source made the active and inactive calls. No stated cut-off is given here; in the data, active = GI50 up to about 1.1 µM and inactive = higher.

Ask: Form entry - test system: EKVX; read-out: GI50; compound: O=C(CC(C(=O)c1cccs1)c1ccsc1)c1ccc(Cl)cc1 (stereo not drawn)
Reply: > 100 µM (inactive)

Next:
Ask: Form entry - test system: EKVX; read-out: GI50; compound: COc1cc(N(Cc2ccc3nc(OC)c(OC)nc3c2)Cc2ccc3nc(OC)c(OC)nc3c2)cc(OC)c1OC
Reply: 39.3 µM (inactive)

Ask: Also COc1cc2c3cc1Oc1c(OC)c(OC)cc4c1[C@@H](Cc1ccc(O)c(c1)Oc1ccc(cc1)C[C@@H]3N(C)CC2)N(C)CC4.c1ccccc1 ?
Reply: 13.9 µM (inactive)

Ask: Also COc1ccc(NC(=O)CSc2nnc(-c3ccc(/N=C\c4ccc(Cl)cc4)cc3)o2)cc1 ?
Reply: > 59.2 µM (inactive)

Ask: Also C/C=C/C=C/c1nc(C#N)c(N)o1 ?
Reply: > 100 µM (inactive)

Ask: Also [O-][S+]1CSSC1 ?
Reply: 31.3 µM (inactive)

Ask: Also CSc1snc2sc3c(Cl)nnnc3c12 ?
Reply: 19.6 µM (inactive)

Ask: Also C=C(C)[C@@H]1CCC2=C[C@H](OC2=O)[C@@]2(C)C[C@@H]2C(=O)/C=C(/C)C(=O)[C@H]1OC(C)=O ?
Reply: 21.2 µM (inactive)

###

Test system: BT-549
assay: NCI tumour cell line growth inhibition, 48 h
Activity calls are given as the source filed them. Cut-off read from the data, not from the text of the source: active = GI50 up to about 1.1 µM and inactive = higher.
Could you please pick one outcome from this set? true (1) (active), false (0) (inactive)

Field: example entries. Status: answers known.
Ask: Could you kindly confirm the outcome this assay logged for c1ccc(/N=C2\SC(c3ccccc3)CN2C23CC4CC(CC(C4)C2)C3)cc1 (stereo not given) ?
Reply: false (0)

Ask: Also CC1=NN(C2=NS(=O)(=O)c3ccccc3N2C)C(=O)C1 ?
Reply: false (0)

Ask: Also COc1ccc(/C=C2\CCC(CNc3ccc(OC)cc3)C2=O)cc1 (stereo not given) ?
Reply: false (0)

Ask: Also CC1(C)OC2C(=O)C=C(COCc3ccccc3)C2O1 (stereo not given) ?
Reply: false (0)

Next:
Ask: Could you kindly confirm the outcome this assay logged for Cc1cc(-c2nc3cccc(O)c3s2)ccc1N ?
Reply: false (0)

Ask: Also CCCCCCCCCCCCCCCCOCC(COP(=O)([O-])OCC[n+]1ccc(N(C)C)cc1)OCC (stereo not given) ?
Reply: false (0)

Ask: Also N#Cc1nc(-c2ccccn2)c(-c2ccccn2)nc1C#N ?
Reply: false (0)
